target: TSLP (as used in the human PBMC assay) (UniProt Q969D9 29-159); test: cell-based or functional assay
*1 amine or outer side, *2 acyl side, *3 side chain or, on linkers, in order; H or OH if unused. Bridges are numbered along the chain shown (N, C = ends). Where no end group is shown, it is not given here. [ ]: non-standard residue; d: D form. The star is where a group is joined. N3CH2C(O)NH(CH2CH2O)2CH2C(O) = [N-]=[N+]=NCC(=O)NCCOCCOCC(=O)*; TATA = O=C(CC[*:1])N1CN(C(=O)CC[*:2])CN(C(=O)CC[*:3])C1; Trp(1-Me) = Cn1cc(C[C@H](N)C(=O)O)c2ccccc21; Arg(Me2a) = CN(C)C(=N)NCCC[C@H](N)C(=O)O; Phe(4-F) = N[C@@H](Cc1ccc(F)cc1)C(=O)O; 1Nal = N[C@@H](Cc1cccc2ccccc12)C(=O)O; tBuAla = CC(C)(C)C[C@H](N)C(=O)O; NMeA = CN[C@@H](C)C(=O)O
Experimental endpoint: CCL17 % Inhibition @ 10 µM, 50 pM TSLP (%)

Check out these entries, answers already filled in.
CQWLEDCWRGXC (not fully specified; Ac-CQWLEDCWRG[4F3ClPhe]C; 3 Cys cyclised with TATA) [Example 8]    71
Ac-C[NMeA][1Nal][tBuAla]QDC[Trp(1-Me)][Arg(Me2a)]G[Phe(4-F)]C (linker 1-7-12 via TATA; not fully specified (C-terminus)) [Example 25]    71
CQWLEDCWRGXC (not fully specified; Ac-CQWLEDCWRG[3,4diFPhe]C; 3 Cys cyclised with TATA) [Example 22]    41
{N3CH2C(O)NH(CH2CH2O)2CH2C(O)}-C[NMeA][Trp(1-Me)][tBuAla]QDC[Trp(1-Me)][Arg(Me2a)]G[Phe(4-F)]C-NH2 (linker 1-7-12 via TATA; also: dimer: peptides clicked via N-terminal azido linker to N2,N6-dipent-4-ynoyl-L-lysine core (source also calls it trimeric), Claim 16 speaks of a dimeric or trimeric moiety) [Example 251]    87

A. CQWLEDCWRGXC (not fully specified; Ac-CQWLEDCWRG[4-FPhe]C; 3 Cys cyclised with TATA) [Example 17]
B. Ac-C[NMeA][Trp(1-Me)][tBuAla]QDC[Trp(1-Me)][Arg(Me2a)]G[Phe(4-F)]C (linker 1-7-12 via TATA) [Example 18]
Compare A and B by numeric CCL17 % Inhibition @ 10 µM, 50 pM TSLP and name the larger one. Your choice should be expressed through its label.
B
